# test: yeast display, Sf9 membrane polyspecificity reagent, FACS + sequencing; frameworks hold sequencing errors
measured.metric: polyreactivity (PSR sort gate)

Examples with their reported polyreactivity (PSR sort gate) follow.
QVQLVDSGVGLVQAGGSLRLSCAASGSIFYQNAMGWYRQAHGSERELVAAITSDGSTYYADSVKGRFTISRDNAKNTVYLQMNSLKPEDTAVYYCPAEYYGHRYDYCGQGTQVTVSS : low polyreactivity
QVQLVESGGGLVQAGGSLRLSCAASGSTFSDNDMGWYRQAPGKERELVATIDDDGSTYYADSVKGRFTISRDNAKNTVYLQMNSLKPEDTAVYYCAAEWYGGYPFGYWGQGTQVTVSS : low polyreactivity
QVQLVESGGGLVQAGGCLRLSCDASGITFDYYAMGWYRQAPVKESELVAAITNDGRTYNADSVKGRFTISLDNAKNTVYLQMNSLKPEDTADYYCARLTYYVNGRYDYWGQGTQVTVSS : low polyreactivity
QFQLVESGGGLVQAGGSLRLSCAASGRTFAWNAMGWYRQAPGKERELVAAISYNGGRTYYADSVKGRFTISRDNAKNTVYFQMNSLKPEDTAVYYCAAQRYGYWGQGTQVTVSS : high polyreactivity

I'd like to know its polyreactivity (PSR sort gate). The sequence in question is "QVQLVESGGGLVQAGGSLRLSCAASGNTFYANVMGWYRQAPGKERELVASITWSGGSTYYADSVKGRFTISRDNAKNTVYLQMNSLKPEDTAVYYCATSGDRLVWGQGTQVTVSS" low polyreactivity

Record: "QVQLVESGGGLVQAGGSLRLSCAASGFILGGYAMGWYRQAPGKERELVAAISWSSGSTYYADSVKGRFTISRDNAKNTVYLQMNSLKPEDTAVYYCAAVGAYDYWGQGTQVSVSS" low polyreactivity

Proceed to "QVQLVESGGGLVQAGGSLRLSCAASGITFFENAMGWYRQAPGKERELVASISSSGGSTYYADSVKGRFTISRDNAKNTVYLQMNSLKPEDTAVYYCAARYYSQKSYIGFRPGYEYWGQGTQVTVSS" low polyreactivity

Would you mind doing "QVQQQESGGGLVQACGSLPLSCAASVSIFTQATMGWYRQPPGKERELVAAINFGSSTYYADSVKGRFTISRDNAKSTVYLQMNSLKPEDTSVYYCAVRALWYDLHDYWGQGTQVTVSS" as well? high polyreactivity

Ok, now "QVQLVESGGGLVQAGGILRLSCAASGRIFRGYAMVWYRQAPGKERELVAAISNGGGTNYADSVKGRFTISRDNAKNTVYLQMNSLKPEDTAVYYFATGFLQNYYKYTSSFRFYYWGQGTQVSVSS" high polyreactivity

Next up: "QVQLVESGGGLVQAGGSLRLSCAASGRIFGPYAMGWYRQAPGKEREWVAAISYSGGRTRYADSVKGRFTISRDNAKNTVYLQMNSLKPEDTAVYYCNRVIPTQSLRDYYWGQGTQVTVSS" high polyreactivity

Please answer likewise for "QVPLEESRGGLVQAGGSLRLSCAASGTIFVAYDMGWYRQAPGKERELVAAIDSVGRTNYADSVKGRFTISRDNAKNTVYLQMNSLKPEDTAVYYCNADQYYSFYDPDDYWGQGTQVTVSS" low polyreactivity

* * *

# test: yeast display, Sf9 membrane polyspecificity reagent, FACS + sequencing; frameworks hold sequencing errors
measured.metric: polyreactivity (PSR sort gate)

QVQLVESGGGLVQAGGSLRLSCAASGSIFTFNAMGWYRQAPGKEREFVAAITRSGGRTYYADSVKGRFTISRDNAKNTVYLQMNSLKPEDTAVYYCAARPRGKYDYWGQGTQVTVSS : high polyreactivity
QVQLVESGGGLVQAGCSLLLSCDATGNIFRYYFMGWYRQAPGKEREFVAAITTSCGSTYYADSVKGRFTISRDNAKNTVYLQMNSLKQEDTAVYYCAKDYWVPGWAEYDYWGQGTQVTVSS : low polyreactivity
QVQLVESGGVLVQAGGSLRLSCAASGSTFYGYAMGWYRQAPGKERELVAAITRSGGSTYYADSVKGRFTISRDNAKNTVYLQMNSLKPEDTAVYYCARQDRDTYYHRYYYWGQGTQVTVSS : high polyreactivity
QVQLVESGGGLVQAGGSLRFSCAASGGFFHGNTMGWYRQAPGKERELVAAISNSGGSTYYADSVKGRFPISRDNAKNTVYLQMNSLKPEDTAVDSCARVGYKLYQYKYDYWGQGTQVTVSS : low polyreactivity
QVQLVESGAGLVQAGGSLRLSCAASGSTCPGNAMGWYRQAPGKERELVAVINSGGGTNYADSVKGRFTISRDNAKNTVYFQINSLNPEDTAVYYCAKGYRRSFIGYWYLKYGYWGQGTQVTVSS : high polyreactivity
QVQLVESGGGLVQAGGSLRLSCAASGFTLGSNAMGWYRQAPGKERELVAAISWDGGRTYYADSVKGRFTISRDNAKNTVYLQMNSLKPEDTAVYYCNRASYLRGTAGGDYWGQGTQVTVSS : high polyreactivity
QVQLVESGGGLVQAGGSLRLSSAASGLTFSDYAMAWYRQAPGKERELVAGISSGGSTYYADSVKGRFTISRDNAKNTVYLQMNSLKPEDTAVYYCAATRYNRWPIKFDYWVQGTQVTVSS : high polyreactivity
QVQLVESGGGLVQAGGSIRLSCAASGRTAKRYAMGWYRQAPGKERELVAAISRGGGSTYYADSVKGRFTISRDNAKNTVYLQMNSLKPEDTAVYYCAADLNSYTRYDYWGQGTQVTVSS : high polyreactivity

Please report the recorded polyreactivity (PSR sort gate) for "QVQLVESGGGLVQAGGSLRLSSAASGFTFYYNAMGWYRQAPGKERELVAAITRTGSTNYADSVKGRFTISRDNAKNTVYLQMNSLKPEDTAVYYCAKTYRRTNWGTYDYWGQGTQVTVSS" . high polyreactivity

Then "QDQLVESGGGLVQAGGSLRLICAASGMGWFRQAPGKEREFVAVIRWSSGSTYYADSVKGRFTISRDNAKNTVYLQMNSLKPEDTAVYYCAAGGYPSLLHDYDYWGQGTQVTVSS" ? low polyreactivity

Okay, and "QVQLVESGGGLVQAGGSLRLSCAASGRIFPLYAMGWYRQAPGKERELVADISVTGTSTYYADSVKGRFTISRDNAKNTVYLQMNSLKPEDTAVYYCAADLWAYGPLWRWSRADYDYWGQGTQVTVSS" ? low polyreactivity

* * *

# test: yeast display, Sf9 membrane polyspecificity reagent, FACS + sequencing; frameworks hold sequencing errors
measured.metric: polyreactivity (PSR sort gate)

QDQLVESGGGLVQAGGSLRLSCAASGRTLYLYAMGWYRQAPGKERELVAGISWSGTSTYYADSVKGRFTISRYNAKNTVYLQMNSLKPEDTAVYYCAADSYPAYLGFVGFDYWGQGTQVTVSS : low polyreactivity
QVQLVESGGGLVQAGGSLRLSCAASGLIFTDYAMGWYRQAPGKDRELVATITARGGDTYYADSVKGRFTISRDNAKNTVYLQMNSLKPEDTAVYYCAAEYLSGGEAGMYYWGQGTQVTVSS : low polyreactivity
QVQLVESGVGLVQAGGSLSLICAASGRIFWPNAMGSYRQAPGKERELVAAISRGGNTNYADSVKGRFTISRDNAKNTVYLQMNSLKPEDTAVYYCAARNFALGYRFDYWGQGTQVTVSS : high polyreactivity
QVQLVESGGGLVQAGGSLRLSCAASGFIFYYNAMGWYRQAPGKERELVASISFSGGSTYYADSVKGRFTISRDNAKNTVYLQKNSLKPEDTAVYYCAARYPGGRPWPRYYYWGQGNQVTVSS : high polyreactivity
QVQLVESGGGLVQAGGSLRLSCAASGFTFYYYAMGWYRQAPGKERELVAAITKNGGRTFYADSVKGRFTISRDNAKNTVYLQMNSLKPEDTAVYYCATVGNWPDYYYWGQGTQVTVSS : high polyreactivity
QVQLQESVGLVQAGGLRLSCAASGSVSYQEAMGWYRQAPAKERELVATISFGANTNYADSVKGRFTISRDNAKNTVYLQMNCLKPEDTAVYYCAAESLFDDYYGYWGQGTQVTVSS : low polyreactivity
QVQLVESGGVLVQAGGSLRLSCAASGRTFTPYTMGCDRPAPGKERELVAAISWSGGTTYYADSVMGRFTISRDNSKITVYLQMNSLKRVDTAVYYCAARVSRTCHGYYYFWGQGTQVTVSS : high polyreactivity
QVQLVESGGGLVQAGGSLRLSCAASGFIFADNTMGWYRQAPGKERELVGAISRRGGSTYYADSVKGRFTISRDNSKNTVYLQMNSLKPEDTAVYYCAARPFVKHDYWGQGTLVTVSS : high polyreactivity
QVQHVESGGGLVQAGGSLRLSCAASGLTLKRNAMGWYRQAPGKERELVAAISGRGGSTYYADSVKGRFTISRDNAKNTVYLQMNSLKPEDTAVYYCAATVQYSPIYDYWGQGTQVTVSS : high polyreactivity
QVQLVESGGGLVQAGGSLRLSCVASGSISQTYAMGWYRQAPGKERELVAAISSSGASTYYADSVKGRFTISRDNAKNTVYLQMNSLKPEDTAVYYCNADKFRRYGYWGQGTQVTVSS : high polyreactivity

Which measured polyreactivity (PSR sort gate) value corresponds to "QVQLVESGGGLVQAGGSLRLSCAASGFIFKIYAMGWYRQAPGKERELVATISRGGSTYYADSVKGRFTISRDNAKNTVYLQMISLNPVDTAVYYCADVFYYPPFLYNYWGQGTQVTVSS" ? high polyreactivity

Another sequence to check: "QVQLVESGGGLVQAGGSLRLSCAASGRIFGLYAMGWYRQAPGKERELVAAISVISTGPYYADSVKGRFTISRDNAMNTVYFQMNSLKPEDTAVYYCNADSVQYTPPESDYWGQGTQVTVSS" low polyreactivity

Try "QVQLVESGGGLVQAGGSLRLSCAASGRIFSRNAMGWYIQAPGKERELVAAISRSGTSTYYADSVKGRFTISRDNAKYTVYLQMNSLKPEDTAVYYCAADYPAVISIRRYDYWGQGTQVTVSS" next. low polyreactivity

Would you kindly repeat that for "QVQLVESGGGLVQAGGSLRLSCAPSGRTFGYNAMGWYRQAPGKESELVAGISSSDASTYYADSVKGRFTISRDNAKNTVYLQMNSLKPEDTAVYYCAATFGFFYYQYDYWGQGTQVTVSS" ? low polyreactivity

Can you handle "QVQLVESGGGLVQAGGSLRLSCAASGTTFDVYAMGWYRQAPGKERELVAAISTRGTRTYYADSVKGRFTISRDNAKNTVYLQMNSLKPEETAVYYCAAYVYDGETVSRFDYWGQGTQVTVSS" next? high polyreactivity

Thanks! And "QVQLVESGGGLVQAGGSLRLSCAASGSTFSYYAMGWDRQAPWKERELVAAITAGGGSTYYADSVKGRFTISRDNAKNTVYLQMNSLKPEDTAVYYCNADQIFGPALNLWKLDYWGQGTQVTVSS" ? low polyreactivity

Further, for "QDQLVESGGALVQAGGSLRLSCAPSGGTFWIYAMGWYRQAPGKERELVAGITTSGATTYYADSVKGRFTISRDNAKNTVYLQMNSLKPVDTAVYYCAADEYYRYEYWGHGTQVTVSS" ? low polyreactivity

Please answer likewise for "QVQLVESGGGLVQAGGSLRLSCAASGSTFKRNAMGWYRPAPGKERELVAAITFSGATTYYADSVKGRFTISRDNAKNTVYLQMNSLKPEDTAVYYCATKAYTTGRYYWGQGTQVTVSS" high polyreactivity

Moving on to the next sequence: "QVQLVESGGGLVQAGGSLRLSCAASGIIFSYYAMGWYRPEHGKEREFVAVITTGGGSTSYADSVKGRFTISRDNAKNTVYLQMNSLKPEDTAVYYCTAGHLGLDGIQDGVDYWGQGTQVTVSS" low polyreactivity

Also need "QVQLVESGGGLVQAGGSLRLSCAGSGFTFIRYAMGWYRQAPGKERELVATITRRTGSTYYADSVKGRFTISRDNAKNTVYLQMYSLKPEDTAVYDCAGELYPSWSHTVFHGYNYWGQGTQVTVSS" , thanks. high polyreactivity

Also check "QVQLQESGRRPGSAGVSPRMSCAASGNIFWVAVMCRYRQAPGKERELVASIGFGCTTYYADSVKCRFTISRDNAKITVYLQMLSLKPFDTAVYYCAAPHYDWGELDYWGQGTQVPVSS" low polyreactivity
